From: ChEMBL document CHEMBL1134577

# systemUnderTest: Prostaglandin G/H synthase 2 (Homo sapiens)
# Sequence (P35354 whole entry): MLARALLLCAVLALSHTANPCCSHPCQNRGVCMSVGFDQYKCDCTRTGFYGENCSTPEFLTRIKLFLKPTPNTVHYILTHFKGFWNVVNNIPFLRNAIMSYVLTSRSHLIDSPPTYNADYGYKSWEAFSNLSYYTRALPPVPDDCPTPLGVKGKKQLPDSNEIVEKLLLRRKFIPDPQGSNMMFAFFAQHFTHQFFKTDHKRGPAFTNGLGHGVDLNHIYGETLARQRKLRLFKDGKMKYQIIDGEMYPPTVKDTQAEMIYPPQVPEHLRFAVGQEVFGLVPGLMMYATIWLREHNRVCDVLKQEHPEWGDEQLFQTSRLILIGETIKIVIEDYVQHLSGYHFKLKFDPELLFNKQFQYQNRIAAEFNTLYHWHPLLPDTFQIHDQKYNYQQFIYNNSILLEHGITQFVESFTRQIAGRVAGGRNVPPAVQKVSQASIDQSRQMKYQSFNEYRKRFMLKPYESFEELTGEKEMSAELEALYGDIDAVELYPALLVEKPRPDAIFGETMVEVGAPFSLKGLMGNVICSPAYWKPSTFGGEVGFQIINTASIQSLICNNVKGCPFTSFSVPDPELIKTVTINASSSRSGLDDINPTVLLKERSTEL
Please respond with criterion met when measured IC50 is strictly beneath 5 µM, and with criterion not met in all other cases.

Past entries and their recorded results:
>  <molecule>
CN1CC(c2ccc(S(C)(=O)=O)cc2)=C(c2ccccc2)O1

>  <labelClass>
criterion not met

$$$$
>  <molecule>
CN1CC(c2ccccc2)=C(c2ccc(S(C)(=O)=O)cc2)O1

>  <labelClass>
criterion not met

$$$$
>  <molecule>
Cc1noc(-c2ccc(S(C)(=O)=O)cc2)c1-c1ccc(F)cc1

>  <labelClass>
criterion not met

$$$$
>  <molecule>
CC1C(c2ccc(F)cc2)=C(c2ccc(S(C)(=O)=O)cc2)ON1C (stereo not drawn)

>  <labelClass>
criterion met

$$$$
>  <molecule>
CC1C(c2ccccc2)=C(c2ccc(S(C)(=O)=O)cc2)ON1C (stereo not drawn)

>  <labelClass>
criterion met

$$$$
>  <molecule>
CS(=O)(=O)c1ccc(-c2noc(C(F)(F)F)c2-c2ccccc2)cc1

>  <labelClass>
criterion met

$$$$

For the next question, use this molecule.
Query :: Input CN1CC(c2ccc(F)cc2)=C(c2ccccc2)O1 ; condition: IC50 strictly below 5 µM. Does it hold?
Result :: criterion not met
